- Test system: TE10
- Assay overview: relative cell viability vs DMSO, compound + 0.2 uM CuET (fraction); TE10 is an esophageal squamous carcinoma line; higher = less cytotoxic
- Measurement context: 2 µM; co-treatment: CuET (bis(diethyldithiocarbamate)copper) 0.2 uM; 48 h
Structures can show the parent of a compound that is named as a salt. Whole data set: some 2,000 compounds, median “relative cell viability vs DMSO, compound + 0.2 uM CuET” near 1, cut for the lowest 2% near 0.25. This excerpt belongs to a sample that is enriched for the lowest values.
Quick reference for relative cell viability among some compounds
Number only, please.

compound="CCN1CCN(C(=O)Cc2ccc(Nc3ncc(F)c(Nc4ccc(C(=O)Nc5ccccc5Cl)cc4)n3)cc2)CC1 [Aurora A Inhibitor I]" test_target=TE10 result_number=0.182

Input: Which relative cell viability reading was recorded for the compound C[C@@H]1CC[C@H]2[C@@H](C)C(=O)O[C@@H]3O[C@@]4(C)CC[C@@H]1[C@]32OO4 [Artemisinin] ?
Output: 1.08

Input: Check N#CC(C#N)=Cc1ccc(O)c(O)c1 too.
Output: 0.937

Input: Check NCC(O)c1ccc(O)cc1 (racemic) [(+,-)-Octopamine HCl] too.
Output: 0.697

Input: Check O=c1cccc2n1C[C@@H]1CNC[C@H]2C1 [Cytisine] too.
Output: 1.07

Input: Check CC(C)=CCC[C@]1(C)C=Cc2c(O)c3c(c(CC=C(C)C)c2O1)O[C@]12C(=C[C@@H]4C[C@H]1C(C)(C)O[C@@]2(C/C=C(/C)C(=O)O)C4=O)C3=O [Gambogic Acid] too.
Output: 0.285

Input: Check CC1=C(O)C(=O)C=C2C1=CC=C1[C@@]2(C)CC[C@@]2(C)[C@@H]3C[C@](C)(C(=O)O)CC[C@]3(C)CC[C@]12C [Celastrol] too.
Output: 0.154
